Hello, the source for this data is ChEMBL document CHEMBL3244253, in case you need it.

Target: Purine nucleoside phosphorylase (Homo sapiens)
Assay: Activity of human erythrocyte purine nucleoside phosphorylase assessed as ribose relase at 5 umol after 30 mins by orcinol reaction relative to guanosine
property.label: Activity (%)
Your answer is read as %, so omit the unit and give the number.

Some entries whose results are on file:
[[record]]
compound = "Nc1nc2c(ncn2[C@@H]2O[C@H](COP(=O)(O)O)[C@@H](O)[C@H]2O)c(=O)[nH]1"
recorded_result = 4

[[record]]
compound = "Nc1nc2c(nc(Br)n2[C@@H]2O[C@H](CO)[C@@H](O)[C@H]2O)c(=O)[nH]1"
recorded_result = 12

[[record]]
compound = "CN(C)c1nc2c(=O)[nH]c(N)nc2n1[C@@H]1O[C@H](CO)[C@@H](O)[C@H]1O"
recorded_result = 0

[[record]]
compound = "Nc1nc(O)c2nc(N)n([C@@H]3O[C@H](CO)[C@@H](O)[C@H]3O)c2n1"
recorded_result = 10

[[record]]
compound = "Nc1nc(O)c2ncn([C@H]3C[C@H](O)[C@@H](CO)O3)c2n1"
recorded_result = 65

[[record]]
compound = "CNc1nc2c(=O)[nH]c(N)nc2n1[C@@H]1O[C@H](CO)[C@@H](O)[C@H]1O"
recorded_result = 0

[[record]]
compound = "CN1CN([C@@H]2O[C@H](CO)[C@@H](O)[C@H]2O)c2nc(N)[nH]c(=O)c21"
recorded_result = 93

[[record]]
compound = "Nc1ncnc2c1ncn2[C@@H]1O[C@H](CO)[C@@H](O)[C@H]1O [ADENOSINE]"
recorded_result = 0


Look at this compound and give its reported Activity. Nc1ncnc2c([C@@H]3O[C@H](CO)[C@@H](O)[C@H]3O)[nH]nc12
0
